B1: CASP6 (parent)
chain: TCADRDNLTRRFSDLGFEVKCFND

Variants of: B1
Assay: protein stability index of a GFP-peptide fusion (GPS, HEK-293T) (PSI 1-6); higher = more stable;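 also: lentivirally expressed fusions sorted by FACS into six bins by GFP to DsRed ratio, PSI derived from sequencing read proportions per bin multiplied by bin number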
Conditions: c terminus: a fixed tail appended
# label = satisfied if protein stability index >= 3 else not satisfied

L15V    satisfied
N23P    satisfied
D6P    satisfied
V19A    satisfied

Given the entry "L15E" , answer whether its protein stability index meets or surpasses 3.
satisfied

Same question for "R10I" please.
not satisfied

Same question for "V19F" please.
not satisfied

Same question for "R10M" please.
not satisfied

Same question for "D4I" please.
not satisfied

Same question for "L8P" please.
satisfied

Same question for "C21P" please.
satisfied

Same question for "N7D" please.
satisfied

Same question for "T1F" please.
not satisfied

Same question for "R5M" please.
satisfied

Same question for "G16C" please.
satisfied

Data provenance is the supplement of paper PMC10567573.
